# system_under_test: T1, Recombinant human TACI/TNFRSF13B Fc chimeric protein, CF (hTACI-ECD-Fc) (human, UniProt O14836 1-165)
# T1 construct: extracellular domain; bought reagent; not shown: Fc part of the bought chimera is not described
# T1 sequence (looked up): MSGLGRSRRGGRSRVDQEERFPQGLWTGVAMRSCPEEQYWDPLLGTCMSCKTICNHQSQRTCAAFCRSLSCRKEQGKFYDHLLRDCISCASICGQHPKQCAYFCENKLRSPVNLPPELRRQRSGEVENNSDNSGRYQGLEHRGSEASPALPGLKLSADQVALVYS
# run_description: ELISA, purified hybridoma antibody
attribute_measured: binding result

1) hybridoma antibody 105C10F1 (mAb004) (antibody, IgG2b, V domains shown, murine hybridoma antibody, IgG2b,κ; re-named CP03; also called CP03) VH: EVKLLQSGGGLVQPGGSLKLSCAASGIDFSRYWMSWVRRAPGKGLEWIGEINPDSSTINYAPSLKDKFIISRDAAKNTLYLQMSKVRSEDTALYYCATLYYDYDGDYAMDYWGQGTSVTVSS VL: DIVMTPSQKFMSTSVGDRVSVTCKASQNVGTNVAWYQQKPGQSPKALIYSASYRYSGVPDRFTGSGSGTDFTLTISNVQSEDLAEYFCQHYNSYPFTFGSGTKLEIK : no binding
2) hybridoma antibody 6G10-1D7 (mAb001) (antibody, IgG1, V domains shown, tested as supernatant and purified; also called CP01) VH: EVQLQQSGPELVKPGASMKISCKASDYSFTDYIMTWVKQSHGKNLEWIGLINPYNGGTTYNQKFKDKATFTVDKSSTTAYMDLLSLTSEDSAVYYCARRGITTDYYTMDYWGQGTSVTVSS VL: DIVMTQSQRFMSTSVGDRVSITCKASQSVGTAVAWYQQTPGQFPKLLIYSTSNRYTGVPDRFTGSGSGTDFTLTISNMQSEDLADYFCQQYSTYPLTFGSGTKLELK : no binding
3) hybridoma antibody 102A12H6 (mAb003) (antibody, IgG1, V domains shown, murine hybridoma antibody, IgG1,κ) VH: EVQLQQSGPELVKPGASVKISCKASGYSFTGYYMNWVKQSPEKSLEWIGEINSSTGGTTYNQKFKAKATMTVDKSSNTAYMELKSLTSEDSAVYYCRYYGSDWHFDVWGTGTTVTVSS VL: QIVLTQSPALMSASPGEKVTMTCSASSSVSYMYWYQQKPRSSPKPWIYLTSSLASGVPARFSGSGSGTSYSLTISTMEAEDAATYYCQQWSSDPLTFGAGTKLELK : no binding
4) hybridoma antibody 152D8E8 (mAb013) (antibody, IgG1, V domains shown, murine, IgG1,κ; re-named CP09; also called CP09) VH: QVTLKESGPGILQSSQTLSLTCSFSGFSLNTSGMGVNWIRQSSGKDLEWLAHIYWNDDKRYNPSLKSRLTISKDTSRNQVFLRITSVDATDTATYFCCRSRLSFDYWGHGTTLTVSS VL: DIKMTQSPSSMYVSLGERVTITCKASQDINRNLSWFQQKPGKSPKTLIYRANRLVDGVPLRFSGSGSGQDYSLTISSLEYEDMGIYYCLQYDEFPRTFGGGTKLEIK : no binding
